# assayed system: T1, C5aRΔTyr mutant (Y11F and Y14F) (human, UniProt P21730 1-350, Y11F | Y14F)
# T1 construct: human C5aR with the two sulfation-site tyrosines changed; A legend and the methods print the second mutation as F14F; also called C5aR-d2Y; source: HEK-293S GnTI- cells (BacMam), purified, reconstituted in DOPC/CHS liposomes
# T1 sequence (looked up): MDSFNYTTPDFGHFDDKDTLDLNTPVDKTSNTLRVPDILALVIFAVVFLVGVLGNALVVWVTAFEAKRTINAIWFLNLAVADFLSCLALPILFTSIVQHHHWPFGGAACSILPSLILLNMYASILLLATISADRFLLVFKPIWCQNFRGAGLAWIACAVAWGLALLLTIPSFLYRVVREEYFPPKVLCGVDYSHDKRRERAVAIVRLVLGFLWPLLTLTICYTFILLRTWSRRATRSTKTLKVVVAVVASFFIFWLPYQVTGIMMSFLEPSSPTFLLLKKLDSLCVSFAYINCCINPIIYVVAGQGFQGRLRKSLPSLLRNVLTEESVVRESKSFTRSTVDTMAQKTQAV
# measurement description: single-molecule force spectroscopy (FD-based AFM); ligand on the AFM tip (PEG27 linker, tris-NTA-Ni2+); receptor in DOPC/CHS liposomes adsorbed on mica; high loading rates only (10^5-10^7 pN/s); Friddle-Noy-de Yoreo fit, Kd calculated from dGbu; 20 mM HEPES, 300 mM NaCl, about 24 °C
# condition set: both partners purified
pKd: −log10 of the molar value.

[
  {
    "binder": "complement C5a anaphylatoxin (ligand, UniProt P01031 678-751, looked up, C5a anaphylatoxin, 74-aa glycoprotein, cut product of complement C5; C-terminal residue R74; numbers count on: the mature C5a; Held on the AFM tip through a PEG27 linker and tris-NTA-Ni2+; also called C5a ligand; endogenous C5a ligand) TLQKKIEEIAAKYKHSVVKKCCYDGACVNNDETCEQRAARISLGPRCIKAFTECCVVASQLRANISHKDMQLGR",
    "pKd": "~1.70"
  }
]
